// data source = patent US20240083958A1

Consider the following binders; for each one, report its Fraction HI (%).
biological target: human β2AR (human, UniProt P07550 2-365); assay: cell-based or functional assay
Bridge positions count the residues as written; N and C are the ends. Square brackets hold non-standard residues; d marks the D form. Primed or numbered codes have the meaning given here. Pra″ = alkyne-bearing residue joined to Azk by a CuAAC triazole staple; Lys(N3) = [N-]=[N+]=NCCCC[C@H](N)C(=O)O
One number for each entry, in %.

- Ac-FNDCRDIIQRMHLRQYEWL-OH [compound 69]: 51

Required: Fraction HI (%), one value per binder below.
1. Ac-KKKFN[Pra″]CRD[Lys(N3)]IQRMHLRQYEFL-OH (triazole 6-10) [compound 62]
2. Ac-FNDCRDIIQRMHLRQYELL-OH [compound 2]
3. Ac-FNDCRDIIQRMHLRQYEFL-OH [compound 68]

1: 91; 2: 21; 3: 62
